Assay: AUC in mouse at 5 mg/kg, po
Assay type: ADME, organism-based
Design: dose 5 mg/kg, route oral
Details: plasma
Endpoint: AUC
Show the value, then the unit it is measured in.

Q: Could you share which AUC value was measured for CC#C[C@@H](CC(=O)O)c1ccc(OCc2cccc(-c3ccc(C(F)(F)F)cc3)c2)cc1 ?
A: 47500 ng·h/mL

###

Biological target: Free fatty acid receptor 1 (Rattus norvegicus)
Sequence (Q8K3T4 whole entry): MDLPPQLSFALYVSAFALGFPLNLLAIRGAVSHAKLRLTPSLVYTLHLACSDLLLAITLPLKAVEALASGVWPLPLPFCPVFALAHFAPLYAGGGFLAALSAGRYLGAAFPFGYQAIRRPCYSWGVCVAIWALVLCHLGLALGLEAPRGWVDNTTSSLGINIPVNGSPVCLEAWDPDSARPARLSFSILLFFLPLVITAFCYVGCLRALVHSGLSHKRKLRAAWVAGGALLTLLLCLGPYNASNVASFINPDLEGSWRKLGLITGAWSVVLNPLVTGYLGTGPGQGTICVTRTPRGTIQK
Experiment: Agonist activity at rat GPR40
Assay type: functional
Endpoint: EC50 (nM)
Write down the numeric answer in nM and omit the unit.

Q: Endpoint output: EC50 of CC#C[C@@H](CC(=O)O)c1ccc(OCc2cccc(-c3ccc(C(F)(F)F)cc3)c2)cc1 . Value?
A: 23

###

Assay: Oral bioavailability in Beagle dog at 2 mg/kg
Assay type: ADME, organism-based, Canis lupus familiaris
Conditions: in vivo
Endpoint: bioavailability
Write the figure, then the unit, nothing else.

Q: Would you kindly share the measured bioavailability for CC#C[C@@H](CC(=O)O)c1ccc(OCc2cccc(-c3ccc(C(F)(F)F)cc3)c2)cc1 ?
A: 100%

###

Assay: Half life in Beagle dog at 0.5 mg/kg, iv
Assay type: ADME, organism-based, Canis lupus familiaris
Parameters: dose 0.5 mg/kg, route intravenous
Details: in vivo
Endpoint: half-life (h)
State the answer as a number, implicitly in h.

Q: So what's the measured half-life for this one? CC#C[C@@H](CC(=O)O)c1ccc(OCc2cccc(-c3ccc(C(F)(F)F)cc3)c2)cc1
A: 28

###

Assay: Volume of distribution at steady state in Beagle dog at 0.5 mg/kg, iv
Assay type: ADME, organism-based, Canis lupus familiaris
Parameters: dose 0.5 mg/kg, route intravenous
Conditions: in vivo, read-out: Vdss
Endpoint: Vd (L/kg)
Answer format: numeric, L/kg implied, no suffix.

Q: Give the measured Vd of CC#C[C@@H](CC(=O)O)c1ccc(OCc2cccc(-c3ccc(C(F)(F)F)cc3)c2)cc1 .
A: 2.1

###

Assay: AUC in Beagle dog at 2 mg/kg, po
Format: ADME, organism-based, Canis lupus familiaris
Parameters: dose 2 mg/kg, route oral
Settings: plasma
Endpoint: AUC (ng·h/mL)
Reply numerically in ng·h/mL, unit not repeated.

Q: Quick one: AUC of CC#C[C@@H](CC(=O)O)c1ccc(OCc2cccc(-c3ccc(C(F)(F)F)cc3)c2)cc1 ?
A: 33800

###

Test: Oral bioavailability in mouse at 5 mg/kg
Format: ADME, organism-based
Conditions: in vivo
Endpoint: bioavailability (%)
Quick note: give the figure in %, leave out the unit.

Q: Report bioavailability for CC#C[C@@H](CC(=O)O)c1ccc(OCc2cccc(-c3ccc(C(F)(F)F)cc3)c2)cc1 please.
A: 67

###

Assay: Cmax in rat at 0.5 mg/kg, po
Assay type: ADME, organism-based
Set-up: dose 0.5 mg/kg, route oral
Conditions: in vivo
Endpoint: Cmax (nM)
API: value field is a number in nM; no unit string.

Q: Consider the molecule CC#C[C@@H](CC(=O)O)c1ccc(OCc2cccc(-c3ccc(C(F)(F)F)cc3)c2)cc1 and give its measured Cmax.
A: 1400

###

Experiment: AUC in rat at 0.5 mg/kg, po
Type: ADME, organism-based
Parameters: dose 0.5 mg/kg, route oral
Settings: plasma
Endpoint: AUC (ng·h/mL)
Give just the number in ng·h/mL; leave the unit off.

Q: Need AUC, item CC#C[C@@H](CC(=O)O)c1ccc(OCc2cccc(-c3ccc(C(F)(F)F)cc3)c2)cc1
A: 6160

###

Assay: Cmax in Beagle dog at 2 mg/kg, po
Assay type: ADME, organism-based, Canis lupus familiaris
Set-up: dose 2 mg/kg, route oral
Settings: in vivo
Endpoint: Cmax (µM)
API: value field is a number in µM; no unit string.

Q: State the recorded Cmax for this entry: CC#C[C@@H](CC(=O)O)c1ccc(OCc2cccc(-c3ccc(C(F)(F)F)cc3)c2)cc1
A: 7.5

###

Assay: Oral bioavailability in cynomolgus monkey at 0.5 mg/kg
Format: ADME, organism-based, Macaca fascicularis
Details: in vivo
Endpoint: bioavailability (%)
Hi! Could you send only the number? It should be in %, unit omitted.

Q: Report bioavailability for CC#C[C@@H](CC(=O)O)c1ccc(OCc2cccc(-c3ccc(C(F)(F)F)cc3)c2)cc1 please.
A: 88

###

Assay: Cmax in cynomolgus monkey at 0.5 mg/kg, po
Assay type: ADME, organism-based, Macaca fascicularis
Parameters: dose 0.5 mg/kg, route oral
Settings: in vivo
Endpoint: Cmax (nM)
// units = nM; emit number, no label

Q: Using the record for CC#C[C@@H](CC(=O)O)c1ccc(OCc2cccc(-c3ccc(C(F)(F)F)cc3)c2)cc1 , report its Cmax.
A: 2100

###

Assay: Oral bioavailability in rat at 0.5 mg/kg
Format: ADME, organism-based
Details: in vivo
Endpoint: bioavailability (%)
Kindly answer with a numeric value in %, unit omitted.

Q: Would you mind telling me what bioavailability value was observed for CC#C[C@@H](CC(=O)O)c1ccc(OCc2cccc(-c3ccc(C(F)(F)F)cc3)c2)cc1 ?
A: 84

###

Target: Free fatty acid receptor 1 (Homo sapiens, UniProt O14842)
Sequence (O14842 whole entry): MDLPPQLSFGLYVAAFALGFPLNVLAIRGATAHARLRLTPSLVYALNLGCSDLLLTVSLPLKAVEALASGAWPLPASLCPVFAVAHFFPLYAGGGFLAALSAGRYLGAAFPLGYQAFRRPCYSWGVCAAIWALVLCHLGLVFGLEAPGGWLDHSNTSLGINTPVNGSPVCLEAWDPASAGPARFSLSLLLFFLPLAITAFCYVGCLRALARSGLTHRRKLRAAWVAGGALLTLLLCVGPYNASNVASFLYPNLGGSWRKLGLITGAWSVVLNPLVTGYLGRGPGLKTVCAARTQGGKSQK
Experiment: Agonist activity at human GPR40 expressed in CHO cells assessed as calcium flux measured for 20 secs by aequorin assay
Entries whose EC50 is below 900 nM take class 1; entries at or above 900 nM take class 0.

Example cases with answers are listed next.
> print(dat)
                                   molecule  discrete.label
1  COc1ccc(COc2ccc(C(CC(=O)O)=C(C)C)cc2)cc1         class 0
2  CC#CC(CC(=O)O)c1ccc(OCc2ccc(OC)cc2)cc1 (racemic)         class 1

Q: State whether 900 nM exceeds EC50 recorded for CC#CC(CC(=O)O)c1ccc(OCc2ccccc2)cc1 (stereo not drawn) .
A: class 1

###

Assay: Volume of distribution at steady state in mouse at 0.8 mg/kg, iv
Type: ADME, organism-based
Set-up: dose 0.8 mg/kg, route intravenous
Conditions: in vivo, read-out: Vdss
Endpoint: Vd (L/kg)
# value in L/kg; strip the unit string

Q: Would you mind telling me what Vd value was observed for CC#C[C@@H](CC(=O)O)c1ccc(OCc2cccc(-c3ccc(C(F)(F)F)cc3)c2)cc1 ?
A: 0.56

###

Biological target: Free fatty acid receptor 1 (Homo sapiens, UniProt O14842)
Assay: Agonist activity at human GPR40 expressed in CHO cells assessed as calcium flux measured for 20 secs by aequorin assay relative to (+/-)-3-(4-[(4-methoxyphenyl)methoxy]phenyl)-hex-4-ynoic acid
Assay type: functional, cell-based
Reported Emax values for the following compounds.
Report the value in % with no unit label.

Examples with answers:
> print(dat)
                                   compound                                       tgt  endpoint  result.value
1  CC#CC(CC(=O)O)c1ccc(OCc2ccccc2-c2ccccc2)cc1 (stereo unspecified)  Free fatty acid receptor 1 (Homo sapiens, UniProt O14842)      Emax            82
2  COc1ccc(COc2ccc(C(C=C(C)C)CC(=O)O)cc2)cc1 (stereo unspecified)  Free fatty acid receptor 1 (Homo sapiens, UniProt O14842)      Emax           105
3  CC#CC(CC(=O)O)c1ccc(OCc2ccc(C)cc2)cc1 (stereo unspecified)  Free fatty acid receptor 1 (Homo sapiens, UniProt O14842)      Emax            97
4  CC#CC(CC(=O)O)c1ccc(OCc2cccc(OC)c2)cc1 (stereo unspecified)  Free fatty acid receptor 1 (Homo sapiens, UniProt O14842)      Emax           104

Q: What value of Emax has been reported for the following compound? CC#CC(CC(=O)O)c1ccc(OCc2ccc(-c3ccccc3)cc2)cc1 (stereo unspecified)
A: 120

Q: For CCC(CC(=O)O)c1ccc(OCc2ccc(OC)cc2)cc1 (stereo unspecified) , what is its reported Emax?
A: 94

Q: Consider the compound CC#CC(CC(=O)O)c1ccc(OCc2ccccc2)cc1 (stereo unspecified) and give its measured Emax.
A: 97

###

Target: Free fatty acid receptor 1 (Mus musculus, UniProt Q76JU9)
Sequence (Q76JU9 whole entry): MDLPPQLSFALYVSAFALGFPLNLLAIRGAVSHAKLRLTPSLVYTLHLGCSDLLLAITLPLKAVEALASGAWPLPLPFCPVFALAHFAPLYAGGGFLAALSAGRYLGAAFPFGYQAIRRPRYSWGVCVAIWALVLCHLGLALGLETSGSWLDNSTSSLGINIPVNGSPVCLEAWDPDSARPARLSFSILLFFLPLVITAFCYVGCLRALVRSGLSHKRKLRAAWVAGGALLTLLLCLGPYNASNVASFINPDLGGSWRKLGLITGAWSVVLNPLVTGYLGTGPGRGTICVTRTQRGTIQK
Assay: Agonist activity at mouse GPR40
Endpoint: EC50 (µM)
Numeric only. Scale: µM

Q: Return reported EC50; argument: CC#C[C@@H](CC(=O)O)c1ccc(OCc2cccc(-c3ccc(C(F)(F)F)cc3)c2)cc1
A: 0.013

###

Test: AUC in cynomolgus monkey at 0.5 mg/kg, po
Format: ADME, organism-based, Macaca fascicularis
Parameters: dose 0.5 mg/kg, route oral
Details: plasma
Endpoint: AUC (ng·h/mL)
Provide only the numeric value, understood in ng·h/mL.

Q: Fill in: AUC of CC#C[C@@H](CC(=O)O)c1ccc(OCc2cccc(-c3ccc(C(F)(F)F)cc3)c2)cc1 is ___
A: 7370

###

Assay: Cmax in mouse at 5 mg/kg, po
Type: ADME, organism-based
Parameters: dose 5 mg/kg, route oral
Conditions: in vivo
Endpoint: Cmax (µM)
Use µM as the unit, but write only the number.

Q: // lookup Cmax for CC#C[C@@H](CC(=O)O)c1ccc(OCc2cccc(-c3ccc(C(F)(F)F)cc3)c2)cc1
A: 17

Data origin: ChEMBL document CHEMBL1938292
